Assay: reduced mouse 2C T cell binding to pMHC/ICAM-1 vesicles – MLPCN validation set, flow cytometry, LFA-1/ICAM-1 modulator project, pilot screen (AID 2523)
Settings: 2C mouse CD8+ T cells, at 7 µM, stronger effect = lower value; measured here: CD8+/vesicle+ event percentage
Please respond with MET when measured double positive events is strictly beneath 60%, and with NOT MET in all other cases.

Would you kindly verify if double positive events of CCOc1ccc(C(=O)NCC2(c3ccccc3)CCOCC2)cc1 is strictly less than 60%?
NOT MET

Here's an entry: CN(C)CCCN1c2ccccc2CCc2ccccc21 . Is its double positive events below 60%?
NOT MET

Does the reported double positive events of the following molecule sit strictly below 60%? COc1ccccc1C(CCN(Cc1ccccc1)C(C)=O)c1ccco1 (configuration not stated)
MET

Hi there! Is double positive events for Cc1cccc2c(=O)n3c(nc12)CCCCC3 below 60%, do you know?
MET

Please state whether double positive events is below 60% for CCOCCCNCc1cn(-c2ccc(F)cc2F)nc1-c1ccccc1C
NOT MET

Just wondering, is double positive events of COc1ccc(Br)cc1C(=O)Nc1ccc(C(=O)O)cc1 below 60%?
NOT MET

In plain terms, does O=C(NC(=S)Nc1nc(-c2ccccc2)cs1)c1ccco1 come in under 60% for double positive events?
MET
